src = ChEMBL document CHEMBL1157489

- Assayed System: C-X-C chemokine receptor type 4 (Homo sapiens, UniProt P61073)
- Sequence (P61073 whole entry): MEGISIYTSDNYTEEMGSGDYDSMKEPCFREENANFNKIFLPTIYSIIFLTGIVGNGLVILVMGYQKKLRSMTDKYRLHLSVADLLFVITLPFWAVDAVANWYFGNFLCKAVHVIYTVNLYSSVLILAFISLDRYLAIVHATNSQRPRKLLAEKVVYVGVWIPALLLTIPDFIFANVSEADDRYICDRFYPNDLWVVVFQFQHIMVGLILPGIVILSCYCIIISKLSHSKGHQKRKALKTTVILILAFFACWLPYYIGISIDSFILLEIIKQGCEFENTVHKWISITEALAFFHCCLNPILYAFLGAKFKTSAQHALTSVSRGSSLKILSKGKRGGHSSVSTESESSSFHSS
- Measurement Protocol: Displacement of [125I]SDF1 from human CXCR4 expressed in CHO cells at 10 uM
- Assay type: cell-based

# Compound, Units Of Measure, Activity
records = [
    ("N=C(N)NCCCn1c(C(=O)NCCc2ccc(O)cc2)cc2cc(NC(=O)CNC(=N)N)ccc21", "%", 23),
    ("N=C(N)NCCCn1c(C(=O)NCCc2c[nH]c3ccccc23)cc2cc(NC(=O)C(Cc3ccccc3)NC(=N)N)ccc21 (racemic)", "%", 72),
    ("N=C(N)NCCCn1c(C(=O)NCCc2c[nH]c3ccccc23)cc2cc(NC(=O)CNC(=N)N)ccc21", "%", 88),
    ("CC(C)CC(NC(=N)N)C(=O)Nc1ccc2c(c1)cc(C(=O)NCCc1c[nH]c3ccccc13)n2CCCNC(=N)N (racemic)", "%", 77),
    ("N=C(N)NCCCn1c(C(=O)NCCc2c[nH]c3ccccc23)cc2cc(NC(=O)C3CCN(C(=N)N)CC3)ccc21", "%", 86),
    ("N=C(N)NCCCn1c(C(=O)NCCc2cccc3ccccc23)cc2cc(NC(=O)CNC(=N)N)ccc21", "%", 61),
    ("N=C(N)NCCCn1c(C(=O)NCCc2ccc3ccccc3c2)cc2cc(NC(=O)CNC(=N)N)ccc21", "%", 63),
    ("N=C(N)NCCc1cc2cc(NC(=O)CCc3ccc(O)cc3)ccc2n1CCc1ccc2ccccc2c1", "%", 53),
    ("N=C(N)NCCCn1c(C(=O)Nc2cccc3ccccc23)cc2cc(NC(=O)CCc3ccc(O)cc3)ccc21", "%", 55),
    ("N=C(N)NCCCn1c(C(=O)NCCc2c[nH]c3ccccc23)cc2cc(NC(=O)CCNC(=N)N)ccc21", "%", 70),
    ("N=C(N)NCCCn1c(C(=O)Nc2cccc3ccccc23)cc2cc(NC(=O)Cc3ccc(O)cc3)ccc21", "%", 62),
]

* * *

- Assayed System: C-X-C chemokine receptor type 4 (Homo sapiens, UniProt P61073)
- Measurement Protocol: Displacement of [125I]SDF1 from human CXCR4 expressed in CHO cells
Listed here are compounds together with their documented IC50.

# Chemical Smiles, IC50 [nM]
measured = [
    ("N=C(N)NCCCn1c(C(=O)NCCc2c[nH]c3ccccc23)cc2cc(NC(=O)[C@H](Cc3ccccc3)NC(=N)N)ccc21", 1700),
    ("CC(C)C[C@H](NC(=N)N)C(=O)Nc1ccc2c(c1)cc(C(=O)NCCc1c[nH]c3ccccc13)n2CCCNC(=N)N", 1200),
    ("NC(N)=NCCCn1c(C(=O)NCCc2c[nH]c3ccccc23)cc2cc(NC(=O)CN=C(N)N)ccc21", 3000),
]
